# testName: in vivo
# measurementSetup: rat, po, rats, p.o., read-out: Safety margin (LD50/ED50)
Measured selectivity ratio, listed per entry.
Response field accepts a number only; no unit should be typed.

Recorded selectivity ratio, per entry:
>>> print(df.to_string())
                                   molecule             metric  endpointvalue
0  Cn1c(=O)c2c(ncn2CCCCCN2CCN(c3cccc(C(F)(F)F)c3)CC2)n(C)c1=O  selectivity ratio           10.5
1  OC(CN1CCCCC1)c1cc(-c2ccccc2)on1 (stereo not drawn) [Control drug III, reference compound]  selectivity ratio             12
2  Cn1c(=O)c2c(ncn2CCCCN2CCN(c3ccc(Cl)cc3)CC2)n(C)c1=O  selectivity ratio            7.6

# ---- query molecule ----
Supply recorded selectivity ratio for `Cc1ccc(N2CCN(CCCn3cnc4c3c(=O)n(C)c(=O)n4C)CC2)cc1C` here.
13.6

* * *

# testName: Antiphlogistic activity: carrageenin paw edema (rats)
# Type: in vivo, Wistar rats
# measurementSetup: Rattus norvegicus, po, 3 hours
# Experimental: (3) Antiphlogistic activity^5 Each test compound of this invention was administered orally to Wistar rats of about 300 g body weight, and 30 minutes later 0.05 ml of a 1% carrageenin solution was injected into a paw of each rat. After three hours, the paw volume was measured to determine the degree of edema formation and the 30% effective dose (ED30) was calculated from the inhibition rate relative to a control group. (5) R. Vinegar et al: J. Pharmacol. Exp. Ther., 166, 96 (1969)
metric: ED30 (mg/kg)
# value in mg/kg; strip the unit string

>>> print(df.to_string())
                                  cpdsmiles  metric  endpointvalue
0  Cn1c(=O)c2c(ncn2CCCCN2CCN(c3ccc(F)cc3)CC2)n(C)c1=O    ED30             10
1  Cn1c(=O)c2c(ncn2CCCCCN2CCN(c3ccc(Cl)cc3)CC2)n(C)c1=O    ED30             50
2  Cn1cnc2c1c(=O)n(CCCN1CCN(c3ccc(Cl)c(Cl)c3)CC1)c(=O)n2C    ED30             25

# ---- query compound ----
Supply recorded ED30 for `Cn1cnc2c1c(=O)n(CCCN1CCN(c3ccccc3Cl)CC1)c(=O)n2C` here.
10

* * *

Measured selectivity ratio, listed per entry.
# testName: in vivo
# measurementSetup: mouse, po, mice, p.o., read-out: Safety margin (LD50/ED50)
Response field accepts a number only; no unit should be typed.

Recorded selectivity ratio, per entry:
>>> df
                                   compound             metric  endpointvalue
0  COc1cc(C)nc(-n2nc(C)cc2OC)n1 [Control drug I, reference compound]  selectivity ratio            4.3
1  O=C(Cn1c(=O)sc2ccc(Cl)cc21)N1CCN(CCO)CC1 [Control drug II, reference compound]  selectivity ratio            8.5
2  OC(CN1CCCCC1)c1cc(-c2ccccc2)on1 (stereo not drawn) [Control drug III, reference compound]  selectivity ratio            5.1

# ---- query compound ----
Supply recorded selectivity ratio for `Cc1cccc(N2CCN(CCn3c(=O)c4c(ncn4C)n(C)c3=O)CC2)c1C` here.
230

* * *

# testName: in vivo
# measurementSetup: mouse, po, mice, p.o., read-out: Safety margin (LD50/ED50)
Labelling: selectivity ratio reported below 30 becomes Criterion met; at or above becomes Criterion not met.

                                   compound   qualitativelabel
0  Cn1cnc2c1c(=O)n(CCCCN1CCN(c3ccc(F)cc3)CC1)c(=O)n2C [Compound E']      Criterion met
1  Cn1cnc2c1c(=O)n(CCCN1CCN(c3ccccc3Cl)CC1)c(=O)n2C [Compound C']  Criterion not met
2  Cn1c(=O)c2c(ncn2CCCCN2CCN(c3ccc(Cl)cc3)CC2)n(C)c1=O [Compound D]      Criterion met
3  Cn1c(=O)c2c(ncn2CCCCCN2CCN(c3ccc(Cl)cc3)CC2)n(C)c1=O [Compound B]  Criterion not met

Bench note: check whether Cn1c(=O)c2c(ncn2CCCCN2CCN(c3ccc(F)cc3)CC2)n(C)c1=O [Compound A] shows selectivity ratio below 30
Criterion not met

Bench note: check whether Cc1ccc(N2CCN(CCCn3cnc4c3c(=O)n(C)c(=O)n4C)CC2)cc1C [Compound C] shows selectivity ratio below 30
Criterion not met

Bench note: check whether Cc1cccc(N2CCN(CCCCCn3c(=O)c4c(ncn4C)n(C)c3=O)CC2)c1 [Compound G'] shows selectivity ratio below 30
Criterion met

* * *

# testName: in vivo
# measurementSetup: rat, po, rats, p.o., read-out: Safety margin (LD50/ED50)
metric: selectivity ratio

>>> df
                                   compound             metric  endpointvalue
0  COc1cc(C)nc(-n2nc(C)cc2OC)n1 [Control drug I, reference compound]  selectivity ratio            ≤ 3
1  Cc1cccc(N2CCN(CCn3c(=O)c4c(ncn4C)n(C)c3=O)CC2)c1C  selectivity ratio          ≥ 100
2  Cn1c(=O)c2c(ncn2CCCCCN2CCN(c3ccc(Cl)cc3)CC2)n(C)c1=O  selectivity ratio    8.8 to 12.5
3  O=C(Cn1c(=O)sc2ccc(Cl)cc21)N1CCN(CCO)CC1 [Control drug II, reference compound]  selectivity ratio           ≤ 23

# ---- query compound ----
Supply recorded selectivity ratio for `Cn1c(=O)c2c(ncn2CCCCN2CCN(c3ccc(F)cc3)CC2)n(C)c1=O` here.
7.5 to 10.6
